target: PDGF-receptor beta enzyme comprising the tyrosine kinase domain (Homo sapiens, UniProt P09619); construct: from amino acid 545 to 1106 of GenBank Access NO: AAA36427; assay: Inhibition of PDGF-receptor kinase activity (cell-free, PLC1 peptide, 33P Flashplate); format: biochemical; conditions: PDGF-R kinase activity; compound at 10 uM; read-out: Percent Inhibition @ 10 uM
Sequence (P09619 545-1106): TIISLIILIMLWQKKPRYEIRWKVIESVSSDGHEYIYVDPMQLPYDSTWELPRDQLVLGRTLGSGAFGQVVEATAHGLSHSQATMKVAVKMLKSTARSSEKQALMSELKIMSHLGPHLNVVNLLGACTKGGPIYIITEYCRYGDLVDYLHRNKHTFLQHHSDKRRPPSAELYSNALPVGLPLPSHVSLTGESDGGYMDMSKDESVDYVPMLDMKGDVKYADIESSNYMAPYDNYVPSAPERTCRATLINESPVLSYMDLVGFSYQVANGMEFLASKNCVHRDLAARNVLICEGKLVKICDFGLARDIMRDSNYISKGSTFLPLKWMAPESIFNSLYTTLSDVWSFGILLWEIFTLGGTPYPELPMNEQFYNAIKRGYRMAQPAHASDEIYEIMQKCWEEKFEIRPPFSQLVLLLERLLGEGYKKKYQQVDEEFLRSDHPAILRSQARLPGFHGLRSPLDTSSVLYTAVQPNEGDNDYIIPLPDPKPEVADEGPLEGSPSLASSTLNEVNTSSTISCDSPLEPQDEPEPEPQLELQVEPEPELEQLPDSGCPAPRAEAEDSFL
Hi, to clarify the labels: met covers inhibition at 10 µM from 80% upward, not met covers anything below 80%.

See these solved cases before continuing.
COc1cc2c(cc1OC)C(C)c1c-2n[nH]c1Nc1ccc(F)cc1 (centres unmarked) :: not met
CN(C)CCCOc1ccc2c(c1)Cc1c-2n[nH]c1Nc1cccnc1 :: met
COc1ccc(Nc2[nH]nc3c2Cc2c(OC)cccc2-3)cc1 :: not met
COc1cc2c(cc1OC)-c1n[nH]c(Nc3ccccc3F)c1C2 :: not met

Then this compound:
Query: Is the recorded value of inhibition at 10 µM equal to or greater than 80% for this compound? CCOc1cccc(Nc2[nH]nc3c2Cc2cc(OCCCO)c(OC)cc2-3)c1
Result: met

----------
target: PDGF-receptor beta enzyme comprising the tyrosine kinase domain (Homo sapiens, UniProt P09619); construct: from amino acid 545 to 1106 of GenBank Access NO: AAA36427; experiment: Inhibition of PDGF-receptor kinase activity (cell-free, PLC1 peptide, 33P Flashplate); type: biochemical; details: PDGF-R kinase activity; compound at 10 uM; read-out: Percent Inhibition @ 10 uM
Hi, to clarify the labels: met covers inhibition at 10 µM from 90% upward, not met covers anything below 90%.

CCOc1cc2c(cc1OCCCO)-c1n[nH]c(Nc3cccc(OC)c3)c1C2 :: met
COc1ccc(OC)c(CNc2[nH]nc3c2Cc2cc(OC)c(OC)cc2-3)c1 :: not met
COc1cc2c(cc1OC)-c1c(c(Nc3cccc(F)c3)nn1C(=O)Oc1ccccc1)C2 :: not met
COc1cc2c(cc1OC)-c1nn(Cc3ccc(OC(C)=O)cc3)c(Nc3cccc(F)c3)c1C2 :: not met
COc1cc2c(cc1OC)-c1nn(C(=O)NCCN3CCOCC3)c(Nc3cccc(F)c3)c1C2 :: met

Query: Is the recorded value of inhibition at 10 µM equal to or greater than 90% for this molecule? OCCCOc1cccc2c1Cc1c-2n[nH]c1Nc1cccc(F)c1
Result: met

Query: Is the recorded value of inhibition at 10 µM equal to or greater than 90% for this molecule? COCCCOc1ccc2c(c1)Cc1c-2n[nH]c1Nc1cccnc1
Result: not met

Query: Is the recorded value of inhibition at 10 µM equal to or greater than 90% for this molecule? CCc1ccccc1Nc1[nH]nc2c1Cc1cc(OC)c(OC)cc1-2
Result: not met

Query: Is the recorded value of inhibition at 10 µM equal to or greater than 90% for this molecule? CC1c2ccccc2-c2n[nH]c(Nc3ccc(F)cc3)c21 (stereo not drawn)
Result: not met

Query: Is the recorded value of inhibition at 10 µM equal to or greater than 90% for this molecule? COc1cc2c(cc1OC)-c1c(c(Nc3cccc(F)c3)nn1C(=O)NCCOCCOCCO)C2
Result: not met

Query: Is the recorded value of inhibition at 10 µM equal to or greater than 90% for this molecule? COc1cc2c(cc1OCC(O)CO)Cc1c-2n[nH]c1Nc1cccc(Cl)c1 (stereo not drawn)
Result: met

Query: Is the recorded value of inhibition at 10 µM equal to or greater than 90% for this molecule? COc1cc2c(cc1OC)-c1n[nH]c(Nc3cc(C)cc(C)c3)c1C2
Result: not met

Query: Is the recorded value of inhibition at 10 µM equal to or greater than 90% for this molecule? COc1cc2c(cc1OC)-c1c(c(Nc3cccc(F)c3)nn1C(=O)OCCOCc1ccccc1)C2
Result: met

----------
// values below are reported pIC50
target: PDGF-receptor beta enzyme comprising the tyrosine kinase domain (Homo sapiens, UniProt P09619); construct: from amino acid 545 to 1106 of GenBank Access NO: AAA36427; experiment: Inhibition of PDGF-receptor kinase activity (cell-free, PLC1 peptide, 33P Flashplate); assay type: biochemical; conditions: PDGF-R kinase activity; read-out: IC50
// pIC50 is dimensionless: -log10 of concentration (M)

Nc1ccc2c(c1)Cc1c-2n[nH]c1Nc1cccc(F)c1 :: 6.84

Query: Provide pIC50 value for the following compound: COc1cc2c(cc1OCC(O)CO)Cc1c-2n[nH]c1NCc1c(Cl)cccc1Cl (stereo not shown)
Result: 9.03

Query: Provide pIC50 value for the following compound: CCC1c2cc(OC)c(OC)cc2-c2n[nH]c(Nc3cccc(Br)c3)c21 (single isomer, unassigned) [Compound 555]
Result: 7.68

Query: Provide pIC50 value for the following compound: COc1ccc2c(c1)Cc1c-2n[nH]c1Nc1ccccc1
Result: 6.66

----------
target: PDGF-receptor beta enzyme comprising the tyrosine kinase domain (Homo sapiens); construct: from amino acid 545 to 1106 of GenBank Access NO: AAA36427; experiment: Inhibition of PDGF-receptor kinase activity (cell-free, PLC1 peptide, 33P Flashplate); assay type: biochemical; details: PDGF-R kinase activity; read-out: IC50
// values below are reported IC50
Just the number in nM, nothing appended.

Query: Provide IC50 value for the following molecule: CCOc1cc2c(cc1OCCCO)-c1n[nH]c(Nc3cccnc3)c1C2 [Compound 371]
Result: 47.6

Query: Provide IC50 value for the following molecule: COc1cccc(Nc2[nH]nc3c2Cc2cc(Br)c(OC)cc2-3)c1 [Compound 370]
Result: 12.2

----------
molecular target: c-Abl kinase (Abelson murine leukemia virus, UniProt P00521)
Sequence (P00521 115-385): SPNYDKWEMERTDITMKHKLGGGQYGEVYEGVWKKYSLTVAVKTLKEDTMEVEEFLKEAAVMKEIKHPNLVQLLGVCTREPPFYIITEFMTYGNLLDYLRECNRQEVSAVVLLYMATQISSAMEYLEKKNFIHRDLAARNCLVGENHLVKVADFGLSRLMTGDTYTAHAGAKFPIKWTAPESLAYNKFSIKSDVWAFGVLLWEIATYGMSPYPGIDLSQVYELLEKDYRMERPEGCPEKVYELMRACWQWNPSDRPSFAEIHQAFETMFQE
pIC50: −log10 of the molar value.
Hi, to clarify the labels: Y covers pIC50 from 6 upward, N covers anything below 6.

See these solved cases before continuing.
CCOc1cccc(Nc2[nH]nc3c2Cc2cc(OCCCO)c(OCCCO)cc2-3)c1 :: Y
COCCCOc1cc2c(cc1OCCCOC)-c1n[nH]c(Nc3ccc(F)c(Cl)c3)c1C2 :: N
CCOc1cccc(Nc2[nH]nc3c2Cc2cc(OCC)c(OCC(O)CN4CCCC4)cc2-3)c1 (centres unmarked) :: Y
CCC1c2cc(OC)c(OC)cc2-c2n[nH]c(Nc3cccc(Cl)c3)c21 (centres unmarked) :: Y
COc1cccc(Nc2[nH]nc3c2Cc2cc(N)ccc2-3)c1 :: Y

Query: Is the recorded value of pIC50 equal to or greater than 6 for this molecule? Fc1ccc2c(c1)Cc1c-2n[nH]c1Nc1ccc(F)c(Cl)c1
Result: N

Query: Is the recorded value of pIC50 equal to or greater than 6 for this molecule? CCOc1cccc(Nc2[nH]nc3c2Cc2cc(OCC)c(OCCCO)cc2-3)c1
Result: Y

Query: Is the recorded value of pIC50 equal to or greater than 6 for this molecule? CCOc1cccc(Nc2[nH]nc3c2Cc2cc(OCC(O)CO)c(OC)cc2-3)c1 (centres unmarked)
Result: Y

----------
// values below are reported pIC50
test system: human coronary artery smooth muscle cells (HCASMC), PDGF-BB induced; assay: Anti-cell proliferation in normal cells in the presence of PDGF stimulation (14C-thymidine incorporation); type: cell-based; conditions: PDGF-BB induced HCASMC proliferation, read-out: IC50 on cell proliferation, HCASMC (PDGF-BB)
// pIC50 is dimensionless: -log10 of concentration (M)

# annotated cases, reported pIC50 shown
COC(=O)c1cccc(Nc2[nH]nc3c2Cc2cc(OCCCN4CCCC4)c(OC)cc2-3)c1 :: 8.10
COc1cc2c(cc1OC)-c1n[nH]c(Nc3ccccc3F)c1C2 :: 6.97
COc1ccc2c(c1)-c1n[nH]c(Nc3ccccc3)c1C2 :: 8.05
Cc1ccc2c(c1)-c1n[nH]c(Nc3ccccc3)c1C2 :: 6.56
COc1cc2c(cc1OC)-c1n[nH]c(NCc3ccccc3)c1C2 :: 7.85

Query: Please indicate recorded pIC50 of COc1cccc(Nc2[nH]nc3c2Cc2cc4c(cc2-3)OCO4)c1 measured with human coronary artery smooth muscle cells (HCASMC), PDGF-BB induced.
Result: 7.72

Query: Please indicate recorded pIC50 of COC(=O)c1cccc(Nc2[nH]nc3c2Cc2cc(OC)c(OC)cc2-3)c1 measured with human coronary artery smooth muscle cells (HCASMC), PDGF-BB induced.
Result: 7.85

Query: Please indicate recorded pIC50 of CN1CCN(c2ccc3c(c2)Cc2c-3n[nH]c2Nc2cccc(Br)c2)CC1 measured with human coronary artery smooth muscle cells (HCASMC), PDGF-BB induced.
Result: 6.90

Query: Please indicate recorded pIC50 of COc1cc2c(cc1OC)-c1n[nH]c(Nc3cccnc3)c1C2 measured with human coronary artery smooth muscle cells (HCASMC), PDGF-BB induced.
Result: 8.70

----------
target: PDGF-receptor beta enzyme comprising the tyrosine kinase domain (Homo sapiens); construct: from amino acid 545 to 1106 of GenBank Access NO: AAA36427; test: Inhibition of PDGF-receptor kinase activity (cell-free, PLC1 peptide, 33P Flashplate); type: biochemical; details: PDGF-R kinase activity; compound at 10 uM; read-out: Percent Inhibition @ 10 uM
reportedProperty: inhibition at 10 µM (%)
Just the number in %, nothing appended.

# annotated cases, reported inhibition at 10 µM shown
Fc1ccc(Nc2[nH]nc3c2Cc2cc(F)ccc2-3)cc1 :: 96
COc1cc2c(cc1OCCCO)Cc1c-2n[nH]c1NCc1c(F)cccc1F :: 98.5
CN1CCN(c2ccc3c(c2)Cc2c-3n[nH]c2Nc2cccc(Br)c2)CC1 :: 70
Cc1ccc(CNc2[nH]nc3c2Cc2cc(F)ccc2-3)cc1Cl :: 47.5
Cc1cccc2c1Cc1c-2n[nH]c1Nc1ccc(F)cc1 :: 26

Query: Provide inhibition at 10 µM value for the following compound: COc1cc2c(cc1OC)-c1n[nH]c(Nc3cccc(OC(C)C)c3)c1C2
Result: 109

Query: Provide inhibition at 10 µM value for the following compound: COc1ccc2c(c1)Cc1c-2n[nH]c1Nc1cccc(Br)c1
Result: 93

Query: Provide inhibition at 10 µM value for the following compound: COc1cc2c(cc1OCC(O)CN1CCCC1)Cc1c-2n[nH]c1Nc1cccc(Cl)c1 (stereo not drawn)
Result: 99

Query: Provide inhibition at 10 µM value for the following compound: CN(C)CCCOc1cccc2c1Cc1c-2n[nH]c1Nc1cccc(Cl)c1
Result: 96

FYI, the data here is from patent US7196110B2.
